- study.system: T1, cSNK:BSA conjugate (bovine, head-to-tail cyclized; conjugated to BSA carrier)
- T1 construct: also called BSA-cSNK
- T1 sequence (P02769 25-607 limits assumed): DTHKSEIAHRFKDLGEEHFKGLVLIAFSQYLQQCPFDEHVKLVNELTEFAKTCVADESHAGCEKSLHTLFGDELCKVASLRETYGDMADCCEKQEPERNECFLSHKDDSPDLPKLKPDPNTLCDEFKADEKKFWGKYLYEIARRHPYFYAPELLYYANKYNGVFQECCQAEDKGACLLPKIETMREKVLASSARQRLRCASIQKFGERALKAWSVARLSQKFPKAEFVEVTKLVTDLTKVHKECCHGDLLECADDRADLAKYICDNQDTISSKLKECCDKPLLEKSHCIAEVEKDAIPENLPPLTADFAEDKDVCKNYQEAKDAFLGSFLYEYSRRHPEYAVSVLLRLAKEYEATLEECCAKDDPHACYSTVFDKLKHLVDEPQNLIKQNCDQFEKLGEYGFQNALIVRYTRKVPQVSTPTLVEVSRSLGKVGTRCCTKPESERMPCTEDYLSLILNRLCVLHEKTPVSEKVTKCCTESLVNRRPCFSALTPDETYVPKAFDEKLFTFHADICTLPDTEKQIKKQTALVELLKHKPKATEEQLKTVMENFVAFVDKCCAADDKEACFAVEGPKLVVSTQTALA
- measurement.description: BLI 2:1 fit, site 1; 50 nM row
I'd be grateful if you could share measured pKd for these entries.
In textbook form, pKd equals minus log to base ten of the concentration in mol/L.

Sample hu5E3-IgG4 (antibody, V domains shown, human IgG4/kappa; also called humanized 5E3 IgG4) VH: QVQLQQSGPEVKKPGASVKISCKASGYIFTSYYIQWVIHAPGQGLEWIGWIYPGNVNTKYNEKFKGKATLTADKSSSTAYMELSSLTSEDTAVYFCARMDYEAHYWGQGTTVTVSS VL: DIQMTQSPSSLSASVGDRVTITCRASQEISGYLTWLQQKPEGAIKRLIYAASTLDSGVPKRFSGSRSGSDYSLTISSLQPEDFATYNCLQYANYPRTFGGGTKLEIK — what was its pKd?
9.20

Sample murine monoclonal antibody 5E3 (antibody, V domains shown, mouse antibody of the 5E3 hybridoma; also called murine 5E3; m5E3) VH: QVQLQQSGPELVKPGASVRISCKASGYIFTSYYIQWVIHRPGQGLEWIGWIYPGNVNTKYNEKFKGKATLTADKSSSTAYMQLSRLTSEDSAVYFCARMDYEAHYWGQGTTLTVSS VL: DIQMTQSPSSLSASLGERVSLTCRASQEISGYLTWLQQKPDGTIKRLIYAASTLDSGVPKRFSGSRSGSDYSLTISSLESEDFADYNCLQYANYPRTFGGGTKLEIK — what was its pKd?
9.48

Sample hu5E3-IgG1 (antibody, V domains shown, human IgG1/kappa; also called humanized 5E3 IgG1; IHA variant) VH: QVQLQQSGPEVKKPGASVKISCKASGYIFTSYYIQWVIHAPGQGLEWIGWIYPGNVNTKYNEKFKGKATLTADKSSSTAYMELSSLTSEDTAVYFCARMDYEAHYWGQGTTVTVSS VL: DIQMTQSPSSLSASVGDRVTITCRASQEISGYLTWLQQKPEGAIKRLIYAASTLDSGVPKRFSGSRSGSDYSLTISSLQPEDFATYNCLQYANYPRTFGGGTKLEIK — what was its pKd?
9.33

Sample hu5E3-IgG2 (antibody, V domains shown, human IgG2/kappa; also called humanized 5E3 IgG2) VH: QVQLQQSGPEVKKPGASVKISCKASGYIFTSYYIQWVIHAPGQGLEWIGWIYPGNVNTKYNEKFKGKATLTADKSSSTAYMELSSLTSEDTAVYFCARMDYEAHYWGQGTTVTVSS VL: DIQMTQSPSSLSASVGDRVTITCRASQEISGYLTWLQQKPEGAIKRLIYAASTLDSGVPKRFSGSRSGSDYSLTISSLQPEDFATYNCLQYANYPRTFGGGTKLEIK — what was its pKd?
8.93

Data origin: patent US20170008955A1
